Experiment: Pharmacokinetics after pulmonary inhalation of apomorphine
Type: in vivo, patients
Conditions: human, plasma, inhaled or intranasal, 400 ug; read-out: AUC(0-∞), Mean (SD) (converted)
quantity_kind: AUC(0-inf)

For this compound ( CN1CCc2cccc3c2[C@H]1Cc1ccc(O)c(O)c1-3 ), measured AUC(0-inf) is 0.945 ng·h/mL

---

Assay: Pharmacokinetics after pulmonary inhalation of apomorphine
Assay type: in vivo, patients
Settings: human, plasma, inhaled or intranasal, 1600 ug; read-out: Cmax, Mean (SD)
quantity_kind: Cmax

For this compound ( CN1CCc2cccc3c2[C@H]1Cc1ccc(O)c(O)c1-3 [Apomorphine, apomorphine] ), measured Cmax is 11.9 ng/mL

---

Assay: Pharmacokinetics after pulmonary inhalation of apomorphine
Format: in vivo, patients
Settings: human, plasma, inhaled or intranasal, 400 ug; read-out: AUC(0-t), Mean (SD) (converted)
quantity_kind: AUC(0-t) (ng·h/mL)
Kindly answer with a numeric value in ng·h/mL, unit omitted.

For this compound ( CN1CCc2cccc3c2[C@H]1Cc1ccc(O)c(O)c1-3 ), measured AUC(0-t) is 0.792

---

Experiment: Pharmacokinetics after pulmonary inhalation of apomorphine
Format: in vivo, patients
Details: human, plasma, inhaled or intranasal, 1600 ug; read-out: AUC(0-∞), Mean (SD) (converted)
quantity_kind: AUC(0-inf) (ng·h/mL)
Kindly answer with a numeric value in ng·h/mL, unit omitted.

For this compound ( CN1CCc2cccc3c2[C@H]1Cc1ccc(O)c(O)c1-3 ), measured AUC(0-inf) is 5.03

---

Assay: Pharmacokinetics after pulmonary inhalation of apomorphine
Format: in vivo, patients
Conditions: human, plasma, inhaled or intranasal, 1000 ug, 1000 μg inhaled, N = 6, 30% apomorphine in 70% lactose blend; read-out: tmax, Mean (SD) (converted)
quantity_kind: Tmax (min)
Kindly answer with a numeric value in min, unit omitted.

For this molecule ( CN1CCc2cccc3c2[C@H]1Cc1ccc(O)c(O)c1-3 ), measured Tmax is 2.6

---

Test: Pharmacokinetics after pulmonary inhalation of apomorphine
Assay type: in vivo, patients
Settings: human, plasma, inhaled or intranasal, 1000 ug; read-out: Cmax, Mean (SD)
quantity_kind: Cmax
I'd appreciate it if you wrote the number followed by its unit.

For this molecule ( CN1CCc2cccc3c2[C@H]1Cc1ccc(O)c(O)c1-3 ), measured Cmax is 10 ng/mL

---

Test: Pharmacokinetics after pulmonary inhalation of apomorphine
Format: in vivo, patients
Settings: human, plasma, inhaled or intranasal, 1600 ug; read-out: AUC(0-t), Mean (SD) (converted)
quantity_kind: AUC(0-t) (ng·h/mL)
Kindly answer with a numeric value in ng·h/mL, unit omitted.

For this compound ( CN1CCc2cccc3c2[C@H]1Cc1ccc(O)c(O)c1-3 ), measured AUC(0-t) is 4.51

---

Assay: Pharmacokinetics after pulmonary inhalation of apomorphine
Type: in vivo, patients
Conditions: human, plasma, inhaled or intranasal, Tmax / time of peak apomorphine plasma concentration, pulmonary inhalation
quantity_kind: Tmax

For this molecule ( CN1CCc2cccc3c2[C@H]1Cc1ccc(O)c(O)c1-3 ), measured Tmax is 1 to 3 min
